MEASURED_METRIC: melting point

| STRUCTURE_SMILES | melting point |
| --- | --- |
| CC(=O)c1sc(=O)n(CC(=O)Nc2c(Cl)cccc2Cl)c1C | 209 to 211 °C |
| Cc1csc(=O)n1CC(=O)Nc1c(Cl)cccc1Cl | 266 to 269 °C |
| O=c1scc(-c2ccccc2)n1-c1cccc(C(F)(F)F)c1 | 84 to 87 °C |
| Cc1cccc(-n2c(C)csc2=O)c1 | 69 to 72 °C |

Then this compound:
Problem: Any idea what melting point was measured for CC(=O)c1sc(=O)n(COC(=O)c2ccccc2)c1C ?
Solution: 121 to 123 °C

---

MEASURED_METRIC: melting point

Below are worked cases with known answers.
| STRUCTURE_SMILES | melting point |
| --- | --- |
| CC(=O)c1sc(=O)n(-c2cccc(C)c2)c1C | 104 to 106 °C |
| Cc1csc(=O)n1CC(=O)Nc1ccccc1 | 188 to 191 °C |
| Cc1cccc(-n2c(-c3ccccc3)csc2=O)c1 | 118 to 121 °C |
| O=C(Cn1c(-c2ccccc2)csc1=O)Nc1c(Cl)cccc1Cl | 213 to 216 °C |
| CC(=O)c1sc(=O)n(CC(=O)Nc2ccccc2)c1C | 188 to 190 °C |
| O=C(Cn1c(-c2ccccc2)csc1=O)Nc1ccccc1 | 177 to 179 °C |

Now for a further compound.
Problem: If you can, please state the reported melting point value of CC(=O)c1sc(=O)n(-c2cccc(C(F)(F)F)c2)c1C .
Solution: 147 to 150 °C
